Sourced from patent US20250084079A1

IC50 values by entry
- TESTED_TARGET: Avi-KRAS WT (1-169) GppNHp/RAF1 RBD-3xFLAG (52-151) (Homo sapiens)
- Construct: 50 nM Avi-KRAS WT (1-169) GppNHp
- ASSAY_EXPLANATION: RAS-effector PPI HTRF disruption assay, Raf1-GppNHp-KRAS WT

Solved cases (3 shown):
[
  {
    "MOLECULE": "Nc1nc2c(-c3cc4nc(OC[C@@]56CCCN5C[C@H](F)C6)nc(O[C@H]5CNC[C@@H]5F)c4cc3C(F)(F)F)ccc(F)c2s1",
    "TESTED_TARGET": "Avi-KRAS WT (1-169) GppNHp/RAF1 RBD-3xFLAG (52-151) (Homo sapiens)",
    "IC50": "> 10 µM"
  },
  {
    "MOLECULE": "Nc1nc2c(-c3ncc4c(O[C@@H]5CCNC5)nc(OC[C@@]56CCCN5C[C@H](F)C6)nc4c3F)c(F)cc(F)c2s1",
    "TESTED_TARGET": "Avi-KRAS WT (1-169) GppNHp/RAF1 RBD-3xFLAG (52-151) (Homo sapiens)",
    "IC50": "> 10 µM"
  },
  {
    "MOLECULE": "C[C@H]1NCC[C@@H]1Oc1nc(OC[C@@]23CCCN2C[C@H](Cl)C3)nc2c(F)c(-c3ccc(F)c4sc(N)c(C#N)c34)c(C(F)(F)F)cc12",
    "TESTED_TARGET": "Avi-KRAS WT (1-169) GppNHp/RAF1 RBD-3xFLAG (52-151) (Homo sapiens)",
    "IC50": "≤ 0.1 µM"
  }
]

Continue with the molecule presented below.
Q. Sample C[C@@H]1C[C@@H](Oc2nc(OC[C@@]34CCCN3C[C@H](F)C4)nc3cc(-c4ccc(F)c5sc(N)c(C#N)c45)c(C(F)(F)F)nc23)CN1 [Compound 95] — what was its IC50?
A. > 10 µM

* * *

- TESTED_TARGET: Avi-KRAS WT (1-169) GppNHp/RAF1 RBD-3xFLAG (52-151) (Homo sapiens, UniProt P01116)
- Construct: 50 nM Avi-KRAS WT (1-169) GppNHp
- Sequence (P01116 1-169 isoform P01116-2): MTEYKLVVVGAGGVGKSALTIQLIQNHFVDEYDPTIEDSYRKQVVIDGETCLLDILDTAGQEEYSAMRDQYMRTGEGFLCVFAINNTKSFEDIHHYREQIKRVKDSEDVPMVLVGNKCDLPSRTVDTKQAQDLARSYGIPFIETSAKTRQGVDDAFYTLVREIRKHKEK
- ASSAY_EXPLANATION: RAS-effector PPI HTRF disruption assay, Raf1-GppNHp-KRAS WT
PROPERTY_MEASURED: IC50

[
  {
    "COMPOUND": "C[C@H]1NCCC1Oc1nc(OC[C@@]23CCCN2C[C@H](F)C3)nc2c(F)c(-c3ccc(F)c4sc(N)nc34)c(C(F)(F)F)cc12 (stereo partly drawn)",
    "VALUE": "0.1 to 1 µM"
  },
  {
    "COMPOUND": "N#Cc1c(N)sc2c(F)ccc(-c3c(C(F)(F)F)cc4c(O[C@@H]5CCNC5)nc(N5CC(N6CC7(CC7)C6)C5)nc4c3F)c12",
    "VALUE": "0.1 to 1 µM"
  },
  {
    "COMPOUND": "Nc1nc2c(-c3cc4nc(OC[C@@]56CCCN5C[C@H](F)C6)nc(O[C@H]5CNC[C@H]5F)c4cc3C(F)(F)F)ccc(F)c2s1",
    "VALUE": "> 10 µM"
  },
  {
    "COMPOUND": "N#Cc1c(N)sc2c(F)ccc(-c3c(C(F)(F)F)cc4c(OC5CCC6(CC5)CNC6)nc(OC[C@@]56CCCN5C[C@H](F)C6)nc4c3F)c12",
    "VALUE": "≤ 0.1 µM"
  },
  {
    "COMPOUND": "C[C@@H]1CNCC1Oc1nc(OC[C@@]23CCCN2C[C@H](F)C3)nc2c(F)c(-c3ccc(F)c4sc(N)nc34)c(C(F)(F)F)cc12 (stereo partly drawn) [Compound 15]",
    "VALUE": "1 to 10 µM"
  }
]

Continue with the compound presented below.
Q. Sample C[C@H]1NCC[C@H]1Oc1nc(OC[C@@]23CCCN2C[C@H](F)C3)nc2cc(-c3ccc(F)c4sc(N)nc34)c(C(F)(F)F)cc12 — what was its IC50?
A. 1 to 10 µM
